Values compiled from patent US20230048132A1.

target: CDK6-CYCLIND3 (Homo sapiens, UniProt Q00534); construct: purchased Carna; experiment: CDK inhibition assay (microfluidic LabChip, IC50 format); type: biochemical; conditions: Table 4a; read-out: CDK6 CyclinD3 IC50
Sequence (Q00534 whole entry): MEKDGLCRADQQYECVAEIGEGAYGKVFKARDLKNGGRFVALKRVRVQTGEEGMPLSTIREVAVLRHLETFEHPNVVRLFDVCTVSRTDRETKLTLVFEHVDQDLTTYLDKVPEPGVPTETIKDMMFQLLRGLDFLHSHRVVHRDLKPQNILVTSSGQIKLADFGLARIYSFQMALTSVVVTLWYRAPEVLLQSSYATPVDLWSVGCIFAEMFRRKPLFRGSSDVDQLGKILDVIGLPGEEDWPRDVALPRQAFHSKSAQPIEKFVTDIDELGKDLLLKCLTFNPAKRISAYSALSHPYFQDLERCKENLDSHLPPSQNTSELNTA
Sequence (P30281 whole entry partner): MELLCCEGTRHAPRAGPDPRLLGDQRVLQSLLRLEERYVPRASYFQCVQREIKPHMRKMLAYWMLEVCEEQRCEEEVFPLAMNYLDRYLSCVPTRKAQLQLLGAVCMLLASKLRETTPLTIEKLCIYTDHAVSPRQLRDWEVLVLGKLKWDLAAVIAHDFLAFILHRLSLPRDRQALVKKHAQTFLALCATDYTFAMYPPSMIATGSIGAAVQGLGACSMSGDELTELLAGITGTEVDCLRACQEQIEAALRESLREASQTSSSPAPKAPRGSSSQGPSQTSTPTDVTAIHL
readout: IC50 (nM)

INSERT INTO results (smilesrepresentation, resultnumber) VALUES
  ('CN(C)[C@H]1CCN(c2ccc(Nc3ncc4c(n3)N(C3CCCC3)C(=O)[C@]3(CCNC3=O)C4)cc2)C1', 3.16),
  ('CN(C)[C@H]1CCN(c2ccc(Nc3ncc4c(n3)N(C3CCCC3)C(=O)[C@]3(CCNC3=O)C4)nc2)C1', 1.88),
  ('O=C1NCC[C@@]12Cc1cnc(Nc3ccc(N4CCNCC4)cn3)nc1N(C1CCCC1)C2=O', 1.64);

[1] CN1CCN(c2ccc(Nc3ncc4c(n3)N(C3CCCC3)C(=O)[C@]3(CCNC3=O)C4)nc2)CC1
[2] Cc1cc(Nc2ncc3c(n2)N(C2CCCC2)C(=O)[C@]2(CCNC2=O)C3)ccc1N1CCN(C)CC1
Request: Short answer wanted: higher IC50, 1 or 2 ? Please reply using the label of the selected record.
Result: 1

[I] COc1cc(Nc2ncc3c(n2)N(C2CCCC2)C(=O)[C@]2(CCNC2=O)C3)ccc1N1CCN(C)CC1
[II] CN(C)[C@H]1CCN(C(=O)c2ccc(Nc3ncc4c(n3)N(C3CCCC3)C(=O)[C@]3(CCNC3=O)C4)cc2)C1
[III] COc1cc(N2CCNCC2)ccc1Nc1ncc2c(n1)N(C1CCCC1)C(=O)[C@]1(CCNC1=O)C2
Request: Hey, quick one: sort these by IC50, low to high? The response must list the labels following the requested ordering.
Result: I, II, III
(I: 3.41 nM, II: 13.9 nM, III: 58.5 nM)

[I] O=C1NCC[C@@]12Cc1cnc(Nc3ccc(N4CCNCC4)nc3)nc1N(C1CCCC1)C2=O
[II] CC(C)N1CCN(c2ccc(Nc3ncc4c(n3)N(C3CCCC3)C(=O)[C@]3(CCNC3=O)C4)c(F)c2)CC1
Request: Short answer wanted: higher IC50, I or II ? Please reply using the label of the selected record.
Result: II

###

target: CDK6-CYCLIND3 (Homo sapiens); construct: purchased Carna; test: CDK inhibition assay (microfluidic LabChip, IC50 format); assay type: biochemical; conditions: Table 4b, upper part; read-out: CDK6 IC50
readout: IC50 (µM)

INSERT INTO assay_data (compound, resultnumber) VALUES
  ('O=C1NCCC12Cc1cnc(Nc3ccc(N4CCOCC4)c(F)c3)nc1N(C1CCCC1)C2=O (centres unmarked)', 0.0102),
  ('CC(C)N1CCN(c2ccc(Nc3ncc4c(n3)N(C3CCCC3)C(=O)C3(CCNC3=O)C4)cc2)CC1 (centres unmarked)', 0.00567),
  ('CN1CCN(c2ccc(Nc3ncc4c(n3)N(C3CCCC3)C(=O)C3(CCN(C)C3=O)C4)cc2F)CC1 (centres unmarked)', 0.0972);

[P] CN1CCC2(Cc3cnc(Nc4ccc(N5CCNCC5)cc4)nc3N(C3CCCC3)C2=O)C1=O (centres unmarked) [Example D1]
[Q] CN(C)CCOc1ccc(Nc2ncc3c(n2)N(C2CCCC2)C(=O)C2(CCNC2=O)C3)cn1 (centres unmarked)
[R] O=C1NCCC12Cc1cnc(Nc3ccc(N4CCNCC4)cc3F)nc1N(C1CCCC1)C2=O (centres unmarked)
[S] O=C1NCCC12Cc1cnc(Nc3ccc(N4CCNCC4)c(F)c3)nc1N(C1CCCC1)C2=O (centres unmarked)
[T] CN(C)CCOc1ccc(Nc2ncc3c(n2)N(C2CCCC2)C(=O)C2(CCNC2=O)C3)cc1 (centres unmarked)
Request: Order the items by recorded IC50; the first position goes to the largest value. The response must list the labels following the requested ordering.
Result: P, Q, R, T, S
